// values below are reported z-score
# Test protocol: plasmodial surface anion channel blockers, osmotic lysis – cell-based, P. falciparum Indochina, OD700, 18 h, primary screen (AID 1157)
# Condition description: P. falciparum Indochina infected erythrocytes, osmotic lysis OD700, 18 h; higher = more signal, called active from +8 up or from −8 down

{"columns": ["Compound", "z-score"],
 "data": [
  ["COc1ccccc1CN1C(=O)c2ccccc2[C@](Cc2ccccc2I)(C(=O)NCc2ccccc2)[C@@H]1c1ccc(CO)cc1", -0.308],
  ["C=CCOC(=O)[C@H]1[C@@H]2C(=O)O[C@@H](c3ccccc3)[C@@H](c3ccccc3)N2[C@@H](c2ccc(OCCOC(=O)[C@H]3C[C@H]4C(=O)N[C@@H](CCCC[N+](C)(C)C)C(=O)N4[C@H]3c3ccc(O)cc3)cc2)[C@]12C(=O)Nc1ccccc12", -1.95],
  ["O=C(NCC(O)CO)[C@]1(CCS(=O)(=O)c2ccccc2)N=C(c2ccc(OCCCO)cc2)O[C@@H]1c1ccccc1 (stereo partly specified)", 0.987],
  ["O=C(N1CCCCC1)[C@]1(CCS(=O)(=O)c2ccccc2)N=C(c2ccc(OCCCO)cc2)O[C@@H]1c1ccccc1", -0.192],
  ["NC(=O)NCC#Cc1ccc2c(c1)[C@]1(C(=O)N2)[C@H](c2ccc(O)cc2)N2[C@H](c3ccccc3)[C@H](c3ccccc3)OC(=O)[C@H]2[C@@H]1C(=O)N1CCN(c2ncccn2)CC1", 0.565],
  ["CC(C)C(=C=CC[C@H](O)c1ccccc1OCCO)CCO", 0.013]
]}

====

# Measured on: Dickkopf-related protein 1 (Homo sapiens) (UniProt O94907)
# Sequence (O94907 whole entry, looked up): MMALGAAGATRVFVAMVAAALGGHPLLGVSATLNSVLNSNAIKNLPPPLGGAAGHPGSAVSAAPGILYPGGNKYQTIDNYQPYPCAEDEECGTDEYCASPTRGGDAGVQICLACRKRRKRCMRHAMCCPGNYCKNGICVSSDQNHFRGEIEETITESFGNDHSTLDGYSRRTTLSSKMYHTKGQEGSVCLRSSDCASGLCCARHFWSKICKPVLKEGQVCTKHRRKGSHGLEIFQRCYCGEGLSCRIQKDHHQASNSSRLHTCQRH
# Test protocol: small molecules binding DKK1 protein – biochemical, small-molecule microarray, 635 nm fluorescence scan, primary screen (AID 1106);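 further: score merges emission near 667 nm with signal to noise over three replicate slides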
# Condition description: higher = more signal

{"columns": ["Smiles input", "Measured on", "composite z-score"],
 "data": [
  ["COCCn1c(C(=O)N(C)C)cc2c1C[C@H]1CN(C(=O)c3ccccc3)[C@@](Cc3ccc(F)cc3)(C(=O)OC)[C@@H]21", "Dickkopf-related protein 1 (Homo sapiens) (UniProt O94907)", -0.567],
  ["C=C[C@H](C)[C@H](OC(=O)Nc1ccc(OC)cc1)c1ccc(O)c2ccccc12", "Dickkopf-related protein 1 (Homo sapiens) (UniProt O94907)", -0.0641],
  ["[N-]=[N+]=NCc1ccccc1C[C@]1(C(=O)NCCN2CCOCC2)N=C(c2ccc(OCCCO)cc2)O[C@H]1c1ccccc1CN=[N+]=[N-]", "Dickkopf-related protein 1 (Homo sapiens) (UniProt O94907)", 0.16],
  ["CC(C)[Si]1(C(C)C)O[C@@H](c2ccccc2)c2cc(-c3ccc(-c4ccc(Cl)c(Cl)c4)o3)nc(CCc3ccccc3)c21", "Dickkopf-related protein 1 (Homo sapiens) (UniProt O94907)", -1.25],
  ["CC(C)N1C(=O)c2ccccc2[C@](C)(C(=O)NC2CC2)[C@@H]1c1ccc(CO)cc1", "Dickkopf-related protein 1 (Homo sapiens) (UniProt O94907)", 0.33],
  ["COc1ccc(C#Cc2ccc3c(c2)[C@]2(C(=O)N3)[C@H](C(=O)N3CCN(c4ncccn4)CC3)[C@H]3C(=O)O[C@H](c4ccccc4)[C@H](c4ccccc4)N3[C@@H]2c2ccc(O)cc2)cc1", "Dickkopf-related protein 1 (Homo sapiens) (UniProt O94907)", 0.353]
]}

====

# Test protocol: probe aCHRDL2 binding to arrayed compounds – biochemical, biotinylated probe, 635/667 nm fluorescence, primary screen (AID 1100)
# Condition description: small-molecule microarray, higher = more signal
Label Met when composite z-score is at or above 0.5; otherwise label Not met.

{"columns": ["Molecule", "Discrete label"],
 "data": [
  ["COCCCNC(=O)[C@@]1(Sc2ccc(C)cc2)CC(=O)N(Cc2ccccc2)[C@@H]1c1ccc(CO)cc1", "Not met"],
  ["COC(=O)[C@@]1(Cc2ccc(F)cc2)[C@H]2c3cc(C(=O)N(C)C)n(CCc4c[nH]c5ccc(OC)cc45)c3C[C@H]2CN1C(=O)c1ccccc1", "Met"],
  ["CN1C(=O)C2C=CC(C(O)C(c3ccccc3)c3ccccc3)N(Nc3ccccc3)C2C1=O (stereo unspecified)", "Met"],
  ["C=CCC(OC(C)=O)[C@@H]1[C@@H](N(Cc2cc3ccccc3o2)C(=O)c2cccc3ccccc23)c2cc(OCCCO)ccc2N1C(=O)Cc1ccc2ccccc2c1 (stereo partly specified)", "Not met"],
  ["CC(c1ccccc1)C(O)C1C=CC2C(=O)N(Cc3ccccc3)C(=O)C2N1n1cnnc1 (stereo unspecified)", "Met"],
  ["CCOC(=O)N1C(c2ccc(OCCCO)cc2)=NC(C(=O)OC)N1C(=O)OCC (stereo unspecified)", "Not met"]
]}

====

# Test protocol: viability profiling in MM1S myeloma cells – cell-based, resazurin fluorescence, basal, 24 h, PK04 Diversity Set, profiling panel (AID 1174);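 further: MM1S multiple myeloma cell line; test concentration not given here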
# Condition description: higher = more signal, called active from +8 up or from −8 down
Label label 1 when z-score is at or above -1; otherwise label label 0.

{"columns": ["Compound", "Discrete label"],
 "data": [
  ["C=C(/C(=C/C[C@@H](OC(=O)c1ccncc1)c1ccc(CO)o1)c1cc(C(=O)OC)ccc1OC)C(C)C", "label 1"],
  ["C=CCC(OC(C)=O)[C@@H]1[C@@H](N(Cc2cc3ccccc3o2)C(=O)c2ccc(C)cc2)c2cc(OCCCO)ccc2N1C(=O)c1ccc(-c2ccccc2)cc1 (some centres undefined)", "label 1"],
  ["COC(=O)[C@@]1(Cc2ccc(F)cc2)[C@H]2c3cc(C(=O)N4CCCC4)n(CCc4ccc(OC)c(Br)c4)c3C[C@H]2CN1C(=O)c1ccccc1", "label 0"],
  ["O=C1NC(=O)C2C1C=CC(C(O)c1cccs1)N2Nc1ccccn1 (centres undefined)", "label 0"],
  ["O=C(NCCN1CCOCC1)[C@@H]1c2ccccc2C(=O)N(Cc2cc(F)cc(C(F)(F)F)c2)[C@H]1c1ccc(CO)cc1", "label 1"],
  ["COc1ccc(C(O)C2C=CC3C(=O)N(c4ccccc4)C(=O)C3N2Nc2ccccc2)c2ccccc12 (centres undefined)", "label 0"],
  ["[N-]=[N+]=NCc1ccccc1C[C@]1(C(=O)NCC(O)CO)COC(c2ccc(OCCCO)cc2)=N1 (some centres undefined)", "label 0"],
  ["CCCCN1CC=CC23O[C@@H]4C=CCCOC(=O)C4[C@H]2C(=O)N(CCCO)[C@@H]3C1=O (some centres undefined)", "label 1"],
  ["CN1C(=O)C2C=CC(C(O)c3ccccc3)N(NC(=O)OC(C)(C)C)C2C1=O (centres undefined)", "label 1"]
]}

====

# Measured on: Pro-neuregulin-1, membrane-bound isoform (Homo sapiens) (UniProt Q02297)
# Sequence (Q02297 whole entry, looked up, canonical isoform): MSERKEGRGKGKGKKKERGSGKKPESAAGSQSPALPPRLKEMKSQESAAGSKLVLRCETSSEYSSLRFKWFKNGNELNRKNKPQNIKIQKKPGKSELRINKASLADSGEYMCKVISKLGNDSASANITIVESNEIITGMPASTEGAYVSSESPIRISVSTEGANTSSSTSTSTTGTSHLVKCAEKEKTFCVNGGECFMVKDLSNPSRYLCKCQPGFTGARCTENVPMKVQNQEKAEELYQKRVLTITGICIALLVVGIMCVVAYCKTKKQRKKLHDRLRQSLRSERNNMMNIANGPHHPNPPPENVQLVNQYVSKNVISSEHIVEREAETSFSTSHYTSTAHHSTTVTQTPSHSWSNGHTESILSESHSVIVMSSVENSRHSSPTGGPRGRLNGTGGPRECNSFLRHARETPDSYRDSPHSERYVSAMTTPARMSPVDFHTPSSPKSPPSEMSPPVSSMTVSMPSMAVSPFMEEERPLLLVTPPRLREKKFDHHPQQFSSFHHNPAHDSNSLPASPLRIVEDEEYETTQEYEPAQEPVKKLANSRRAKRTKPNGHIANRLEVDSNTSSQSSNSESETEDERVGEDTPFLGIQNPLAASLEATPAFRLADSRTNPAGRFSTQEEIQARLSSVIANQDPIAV
# Test protocol: small molecules binding neuregulin-1 protein – biochemical, small-molecule microarray, fluorescence 635/667, psychiatric disease protein project, primary screen (AID 1075);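 further: score combines 667 nm spot fluorescence with signal to noise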
# Condition description: NRG1 binding, 635 nm fluorescence, higher = more signal
Quantity: composite z-score

{"columns": ["Compound", "Quantity", "Data value"],
 "data": [
  ["C=C(COC)C(=O)CC[C@@H](OC(=O)c1ccccc1-c1ccccc1C(=O)O)c1ccc(CO)o1", "composite z-score", 0.982],
  ["C=CCN1C(=O)[C@@]2(O[C@@H](CCO)[C@H]([Si](C)(C)c3ccc(OC)cc3)[C@H]2C)c2cc(N3C(=O)COc4ccccc43)ccc21", "composite z-score", 1.02],
  ["[N-]=[N+]=NCc1ccccc1C[C@]1(C(=O)NCC(O)CO)COC(c2ccc(OCCCO)cc2)=N1 (stereo partly drawn)", "composite z-score", 1]
]}

====

// values below are reported composite z-score
# Measured on: Left-right determination factor 2 (Homo sapiens) (UniProt O00292)
# Sequence (O00292 whole entry, looked up): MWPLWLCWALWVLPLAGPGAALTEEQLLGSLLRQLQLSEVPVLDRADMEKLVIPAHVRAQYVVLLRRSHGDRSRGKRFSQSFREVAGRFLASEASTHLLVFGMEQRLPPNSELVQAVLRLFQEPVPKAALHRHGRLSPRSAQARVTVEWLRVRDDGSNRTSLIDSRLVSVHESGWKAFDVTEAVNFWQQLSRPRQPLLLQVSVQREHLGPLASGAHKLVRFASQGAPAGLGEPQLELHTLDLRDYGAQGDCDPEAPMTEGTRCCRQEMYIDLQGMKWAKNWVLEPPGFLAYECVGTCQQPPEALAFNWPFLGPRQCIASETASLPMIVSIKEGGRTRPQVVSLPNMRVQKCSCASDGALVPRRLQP
# Test protocol: small molecules binding LEFTY2 protein – biochemical, small-molecule microarray, 635 nm fluorescence scan, primary screen (AID 1110)
# Condition description: higher = more signal
Quantity: composite z-score

{"columns": ["Compound", "Measured on", "Quantity", "Data value"],
 "data": [
  ["CCCCC(=C=CC[C@H](O)c1ccccc1OCCO)C[C@H](O)c1cc(Cl)cc(Cl)c1O", "Left-right determination factor 2 (Homo sapiens) (UniProt O00292)", "composite z-score", -0.408],
  ["COc1ccc([Si](C)(C)[C@@H]2[C@@H](CCn3cc([C@H](O)c4ccccc4)nn3)O[C@]3(C(=O)N(C)c4ccccc43)[C@H]2C)cc1", "Left-right determination factor 2 (Homo sapiens) (UniProt O00292)", "composite z-score", 0.0661],
  ["C=C[C@H](OC)[C@@H](OC(=O)Nc1ccc(SC)cc1)c1ccc(OCCO)cc1", "Left-right determination factor 2 (Homo sapiens) (UniProt O00292)", "composite z-score", 0.105],
  ["C=C[C@H](C)[C@H](O)c1ccc(OCCO)cc1", "Left-right determination factor 2 (Homo sapiens) (UniProt O00292)", "composite z-score", -1.42],
  ["O=C1C2C=CC(C(O)CCc3ccccc3)N(Nc3ccccc3)C2C(=O)N1c1ccccc1 (configuration not stated)", "Left-right determination factor 2 (Homo sapiens) (UniProt O00292)", "composite z-score", -0.231],
  ["COc1ccc(C(=O)Nc2cccc(CN3C(=O)[C@@]4(O[C@@H](CCn5cc([C@H](O)c6ccccc6)nn5)[C@H]([Si](C)(C)c5ccc(OC)cc5)[C@H]4C)c4ccccc43)c2)cc1", "Left-right determination factor 2 (Homo sapiens) (UniProt O00292)", "composite z-score", 0.534],
  ["O=C1O[C@@H](c2ccccc2)[C@@H](c2ccccc2)N2[C@@H](c3ccc(O)cc3)[C@]3(C(=O)Nc4ccccc43)[C@@H](C(=O)N3CCCCCCC3)[C@H]12", "Left-right determination factor 2 (Homo sapiens) (UniProt O00292)", "composite z-score", 0.695],
  ["O=c1cccc(-c2cccc3ccccc23)o1", "Left-right determination factor 2 (Homo sapiens) (UniProt O00292)", "composite z-score", -0.905],
  ["COC(=O)[C@@]1(Cc2ccc(OC)cc2)[C@H]2c3cc(C(=O)N4CCCC4)n(C[C@H](O)CO)c3C[C@H]2CN1C(=O)c1ccccc1", "Left-right determination factor 2 (Homo sapiens) (UniProt O00292)", "composite z-score", -0.416],
  ["O=C1O[C@@H](c2ccccc2)[C@@H](c2ccccc2)N2[C@@H](c3ccc(O)cc3)[C@]3(C(=O)Nc4ccc(C#CCCO)cc43)[C@@H](C(=O)N3CCCCCCC3)[C@H]12", "Left-right determination factor 2 (Homo sapiens) (UniProt O00292)", "composite z-score", 0.51],
  ["CC[C@@H]1C=C(C(=O)O)[C@H](c2ccc(C(C)C)cc2)N1S(=O)(=O)c1ccc(C)cc1", "Left-right determination factor 2 (Homo sapiens) (UniProt O00292)", "composite z-score", 0.615],
  ["C=CC[C@@]1(C(=O)NCCN2CCOCC2)N=C(c2ccc(OCCCO)cc2)O[C@@H]1c1ccccc1CN=[N+]=[N-]", "Left-right determination factor 2 (Homo sapiens) (UniProt O00292)", "composite z-score", -0.325],
  ["O=C1O[C@H](c2ccccc2)[C@H](c2ccccc2)N2[C@H]1[C@@H](C(=O)Nc1nc3ccccc3s1)[C@]1(C(=O)Nc3ccc(C#CC4=CCCCC4)cc31)[C@H]2c1ccc(OCCO)cc1", "Left-right determination factor 2 (Homo sapiens) (UniProt O00292)", "composite z-score", 0.56],
  ["CN1C(=O)C2C=CC(C(O)C(c3ccccc3)c3ccccc3)N(Nc3ccccc3)C2C1=O (configuration not stated)", "Left-right determination factor 2 (Homo sapiens) (UniProt O00292)", "composite z-score", -0.0076],
  ["Cc1ccc([C@H]2C(C(=O)O)=C[C@@H](C(C)C)N2S(=O)(=O)c2ccc(C)cc2)cc1", "Left-right determination factor 2 (Homo sapiens) (UniProt O00292)", "composite z-score", -0.448],
  ["CCCC[C@@H]1C[C@H]1[C@@H](NC(=O)c1ccco1)c1ccccc1", "Left-right determination factor 2 (Homo sapiens) (UniProt O00292)", "composite z-score", -2.75],
  ["CCOC(=O)C[C@H]1[C@H](OC(=O)c2ccccc2-c2ccccc2)[C@@H](NC(=O)c2ccc(-c3ccccc3)cc2)c2cc(OCCCO)ccc2N1C(=O)c1ccccc1", "Left-right determination factor 2 (Homo sapiens) (UniProt O00292)", "composite z-score", 0.572],
  ["C=C(COC)C(=O)CC[C@H](OC(=O)c1cccnc1)c1ccccc1OCCO", "Left-right determination factor 2 (Homo sapiens) (UniProt O00292)", "composite z-score", 0.53],
  ["CN(C)CCCCCCNC(=O)[C@@H]1C[C@@H]2C(=O)NCC(=O)N2[C@@H]1c1cccc(OCCO)c1", "Left-right determination factor 2 (Homo sapiens) (UniProt O00292)", "composite z-score", 1.36],
  ["COCCOC(=O)N1C(=O)[C@@]2(c3ccccc31)[C@H](C(=O)N1CCCCCCC1)[C@H]1C(=O)O[C@H](c3ccccc3)[C@H](c3ccccc3)N1[C@@H]2c1ccccc1OCCO", "Left-right determination factor 2 (Homo sapiens) (UniProt O00292)", "composite z-score", 0.941],
  ["COCC1C2CC[C@H]3C(OCc4ccc(F)cc4C(F)(F)F)OC[C@]4(C)[C@H]3C2=C(CN4C(=O)OC(C)(C)C)[C@H](C)C1COC (some centres not stated)", "Left-right determination factor 2 (Homo sapiens) (UniProt O00292)", "composite z-score", -0.13],
  ["[N-]=[N+]=NCc1ccccc1[C@@H]1OC(c2ccc(OCCCO)cc2)=N[C@]1(Cc1ccccc1N=[N+]=[N-])C(N)=O", "Left-right determination factor 2 (Homo sapiens) (UniProt O00292)", "composite z-score", -0.0808]
]}
